Hello, the source for this data is ChEMBL document CHEMBL1201862, in case you need it.

- System: DLD-1
- procedure_text: NCI tumour cell line growth inhibition, 48 h
Calls of active or inactive are those of the source. No stated cut-off is given here; in the data, active = GI50 up to about 1.1 µM and inactive = higher.

| compound | GI50 |
| --- | --- |
| CC(=O)Nc1ccc(-c2nnc(SCC(=O)Nc3cccc([N+](=O)[O-])c3)o2)cc1 | 12.8 µM (inactive) |
| Cc1ccc(S(=O)(=O)N/N=c2\c(C)c(C3=NS(=O)(=O)c4cc(S(N)(=O)=O)c(Cl)cc4N3)oc3c(Cl)cc(Cl)cc23)cc1 | > 100 µM (inactive) |
| C/C(CCn1[nH]c(=O)ccc1=O)=N\OCCCc1ccccc1 | > 100 µM (inactive) |
| CSc1ccc2c(cc1=O)C(NC(=O)c1cc(O)c(OC(=O)O)c(O)c1)CCc1cc(O)c(O)c(O)c1-2 (stereo not given) | 18.5 µM (inactive) |
| COC(=O)CCC(=O)Nc1ccc(Cl)cc1C | > 100 µM (inactive) |
| Fc1ccc(F)c(C2SCc3nc4ccccc4n32)c1 (stereo not given) | > 100 µM (inactive) |
| O=C(O)c1oc2ccc([N+](=O)[O-])c3c2c1CCC3 | > 100 µM (inactive) |
| C/C=C/CC(C)[C@@H](O)[C@H](NC)C(=O)O (stereo not given in full) | > 100 µM (inactive) |
| O=C1NC(=O)C2C(=O)NC(=O)C1C2Cc1ccco1 (stereo not given) | > 100 µM (inactive) |
| N#CCCN(CCC#N)C(=O)c1cccc(C(=O)N(CCC#N)CCC#N)c1 | > 88.9 µM (inactive) |
